Binary classification by intrinsic clearance, rat liver microsomes, with 100 mL/min/kg as an inclusive lower bound for class 1; all other cases are class 0.

Query: // inclusive: intrinsic clearance, rat liver microsomes at least 100 mL/min/kg? input: "Cc1ccnc(NC(=O)CN(C)C(=O)c2ccc(Cl)cc2)c1"
Reply: class 1

Query: // inclusive: intrinsic clearance, rat liver microsomes at least 100 mL/min/kg? input: "NC(=O)CN1CCC(COc2ccccc2C(F)(F)F)CC1"
Reply: class 1

Query: // inclusive: intrinsic clearance, rat liver microsomes at least 100 mL/min/kg? input: "O=C(NCc1ccc(F)cc1)C1CCN(C(=O)/C=C/c2ccccc2)CC1"
Reply: class 1

Query: // inclusive: intrinsic clearance, rat liver microsomes at least 100 mL/min/kg? input: "O=S1(=O)CCN(C2CCN(CC(F)(F)F)CC2)CC1"
Reply: class 0

Query: // inclusive: intrinsic clearance, rat liver microsomes at least 100 mL/min/kg? input: "Cc1ccc(CN2CC[C@H](c3nnc(-c4ccccc4F)o3)C2)o1"
Reply: class 1

Query: // inclusive: intrinsic clearance, rat liver microsomes at least 100 mL/min/kg? input: "CC(C)(C)c1nnnn1CC(=O)NC12CC3CC(CC(C3)C1)C2"
Reply: class 1

Query: // inclusive: intrinsic clearance, rat liver microsomes at least 100 mL/min/kg? input: "Cc1ccc(NC(=O)CN2[C@H](Cc3ccccc3)C[C@]3(C)NC(=O)CCC[C@H]23)cc1F"
Reply: class 1

Query: // inclusive: intrinsic clearance, rat liver microsomes at least 100 mL/min/kg? input: "Cc1ccc(CCNc2ccc(C#N)nc2)cn1"
Reply: class 0

Query: // inclusive: intrinsic clearance, rat liver microsomes at least 100 mL/min/kg? input: "N#Cc1ccc(-c2csc(CCN3CCCC3=O)n2)cc1"
Reply: class 0

Query: // inclusive: intrinsic clearance, rat liver microsomes at least 100 mL/min/kg? input: "CC(C)[C@H](NC(=O)c1c(F)cccc1F)C(=O)N1CCOCC1"
Reply: class 0

Query: // inclusive: intrinsic clearance, rat liver microsomes at least 100 mL/min/kg? input: "C=CC(=O)N1CCC[C@H](n2c(=O)n(-c3ccc(Oc4ccccc4)cc3)c3c(N)ncnc32)C1"
Reply: class 1

Query: // inclusive: intrinsic clearance, rat liver microsomes at least 100 mL/min/kg? input: "O=C(c1cc2ccccc2[nH]1)N1C[C@@H](O)[C@H](N2CCOCC2)C1"
Reply: class 0

Query: // inclusive: intrinsic clearance, rat liver microsomes at least 100 mL/min/kg? input: "O=C(O)c1cc2cc(O)c(O)cc2c(C(=O)c2ccc(O)c(O)c2)n1"
Reply: class 1

Query: // inclusive: intrinsic clearance, rat liver microsomes at least 100 mL/min/kg? input: "COC(C)(C)C(=O)Nc1ccnc(C(C)(C)C)n1"
Reply: class 1

Query: // inclusive: intrinsic clearance, rat liver microsomes at least 100 mL/min/kg? input: "Nc1ccc2c(ccn2CC(=O)N2CCOCC2)c1"
Reply: class 0

Query: // inclusive: intrinsic clearance, rat liver microsomes at least 100 mL/min/kg? input: "COc1cc(CNCCN2CCOCC2)cc(Cl)c1OCc1ccccc1"
Reply: class 1

Query: // inclusive: intrinsic clearance, rat liver microsomes at least 100 mL/min/kg? input: "CC(C)C(=O)N1CCn2nc(CNC3CCc4ccccc4CC3)cc2C1"
Reply: class 1

Query: // inclusive: intrinsic clearance, rat liver microsomes at least 100 mL/min/kg? input: "O=C(NCc1ccc(F)cc1)c1ccc(-n2ccnc2)nc1"
Reply: class 0

Query: // inclusive: intrinsic clearance, rat liver microsomes at least 100 mL/min/kg? input: "Cn1c(CNc2ccc(C(=N)N)cc2)nc2cc(C(=O)N(CCC(=O)O)c3ccccn3)ccc21"
Reply: class 0

====

observation type: intrinsic clearance, human liver microsomes (mL/min/kg)
API: value field is a number in mL/min/kg; no unit string.

Kindly note the recorded intrinsic clearance, human liver microsomes for "O=C(NC1CCCC1)c1cc(C2CC2)nc2ccccc12" , which is 61.9

Kindly note the recorded intrinsic clearance, human liver microsomes for CC(=O)N1CCCC(C(=O)N2CCc3c(cccc3C(C)C)C2)C1 (centres undefined) , which is 46

Kindly note the recorded intrinsic clearance, human liver microsomes for c1sc(NCC2CCCO2)nc1C12CC3CC(CC(C3)C1)C2 (centres undefined) , which is 45.7

Kindly note the recorded intrinsic clearance, human liver microsomes for "Cc1cc(C)c(-n2cccn2)c(-c2cn(C[C@@H]3CCCO3)nn2)c1" , which is 68

Kindly note the recorded intrinsic clearance, human liver microsomes for "O=C(Nc1nnc(SCc2ccc(F)cc2)s1)C1CCC1" , which is 52

Kindly note the recorded intrinsic clearance, human liver microsomes for "c1cnc(NCc2cccc3cnccc23)nc1" , which is 60.5

====

observation type: fraction unbound, human plasma
Would you mind answering with just the numeric figure?

Kindly note the recorded fraction unbound, human plasma for "C[C@@H]1c2nnn(-c3ncc(F)cn3)c2CCN1C(=O)c1cccc(C(F)(F)F)c1Cl" , which is 0.0931

Kindly note the recorded fraction unbound, human plasma for "OC[C@H](Nc1cncc(-c2ccc3[nH]ncc3n2)c1)c1ccccc1" , which is 0.104

Kindly note the recorded fraction unbound, human plasma for "CN(c1ncc(F)cn1)[C@H]1CCCNC1" , which is 1

Kindly note the recorded fraction unbound, human plasma for "Nc1ncnc2c1c(-c1cnc3[nH]ccc3c1)nn2C1CCCC1" , which is 0.0729

====

Please provide measured intrinsic clearance, rat liver microsomes for the entries that follow.
API: value field is a number in mL/min/kg; no unit string.

Kindly note the recorded intrinsic clearance, rat liver microsomes for "O=C(NCCN1C(=O)CSC1=O)c1cc(Cl)c2c(c1)OCO2" , which is 83

Kindly note the recorded intrinsic clearance, rat liver microsomes for "Cc1cccc(NC(=O)c2ccccc2-c2ccccc2)n1" , which is 686

Kindly note the recorded intrinsic clearance, rat liver microsomes for "CCN(CC)C(=O)c1ccc(C2=CC3(CCNCC3)Oc3cccc(O)c32)cc1" , which is 65.8

Kindly note the recorded intrinsic clearance, rat liver microsomes for "Cc1cc(C(=O)NC2CCN(c3ncnc4sc(C)c(C)c34)CC2)on1" , which is 368

====

Please provide measured intrinsic clearance, human liver microsomes for the entries that follow.

Kindly note the recorded intrinsic clearance, human liver microsomes for "CSc1cnc(N2CCCN(c3ncc(SC)cn3)CC2)nc1" , which is 131 mL/min/kg

Kindly note the recorded intrinsic clearance, human liver microsomes for "Nc1ccnn1Cc1ccc(Cl)c(F)c1" , which is ≤ 4.74 mL/min/kg

Kindly note the recorded intrinsic clearance, human liver microsomes for "C#Cc1cccc(N(CCC(=O)NC(N)=O)Cc2cccs2)c1" , which is 51.4 mL/min/kg

Kindly note the recorded intrinsic clearance, human liver microsomes for "COCCOc1ccc2c(c1)ncn2-c1ccc2cccc(N3CCC(N)CC3)c2n1" , which is 14.7 mL/min/kg

Kindly note the recorded intrinsic clearance, human liver microsomes for "CCS(=O)(=O)Cc1ccn(-c2cccc(F)c2)n1" , which is ≤ 4.74 mL/min/kg

Kindly note the recorded intrinsic clearance, human liver microsomes for "Cc1cc(NC(=O)C2CCOCC2)sn1" , which is ≤ 4.74 mL/min/kg

Kindly note the recorded intrinsic clearance, human liver microsomes for "CCNc1cc2c(nn1)CCN(C(=O)Cn1ccc3ccccc31)C2" , which is ≤ 4.74 mL/min/kg

Kindly note the recorded intrinsic clearance, human liver microsomes for "Cc1ccc(OCc2nc3cc(N)ccc3[nH]2)cc1" , which is ≤ 4.74 mL/min/kg

Kindly note the recorded intrinsic clearance, human liver microsomes for "O=C(O)c1csc(Cc2ccc(Cl)cc2)n1" , which is ≤ 4.74 mL/min/kg

Kindly note the recorded intrinsic clearance, human liver microsomes for "C#CCN1CCC[C@H]1C(=O)Nc1cnn(-c2ncccn2)c1" , which is ≤ 4.74 mL/min/kg

Kindly note the recorded intrinsic clearance, human liver microsomes for "Nc1ccc(C(=O)N2CCOCC2)c(Cl)c1" , which is ≤ 4.74 mL/min/kg

Kindly note the recorded intrinsic clearance, human liver microsomes for "CN(c1ncnc2c1cnn2CCO)C1CCCCC1" , which is ≤ 4.74 mL/min/kg

Kindly note the recorded intrinsic clearance, human liver microsomes for "CCCCNC(=O)c1cccc2ncccc12" , which is ≤ 4.74 mL/min/kg

====

- condition set: pH 6.8
Binary classification by aqueous solubility, with 30 µg/mL as an inclusive lower bound for class 1; all other cases are class 0.

Query: // inclusive: aqueous solubility at least 30 µg/mL? input: "Cc1cc(C(=O)Nc2c(C)nn(C(C)C)c2C)c2ccc(F)cc2n1"
Reply: class 1

Query: // inclusive: aqueous solubility at least 30 µg/mL? input: "Cc1cnc(Cl)nc1-c1ccc(N(Cc2ccc(CNC(=O)C(F)F)cc2)C(=O)c2ccc(O)cc2O)cc1"
Reply: class 0

Query: // inclusive: aqueous solubility at least 30 µg/mL? input: "O=C(Cc1cccs1)NCc1ccccc1F"
Reply: class 1

Query: // inclusive: aqueous solubility at least 30 µg/mL? input: "Cc1ccsc1-c1nc(CN(C)CCc2cn[nH]c2)c(C)o1"
Reply: class 1

Query: // inclusive: aqueous solubility at least 30 µg/mL? input: "COc1ccc(C(=O)Nc2ccc3oc(C)nc3c2)c(OC)c1"
Reply: class 0

Query: // inclusive: aqueous solubility at least 30 µg/mL? input: "N#CCSCC(=O)NC1CCCCCC1"
Reply: class 1

Query: // inclusive: aqueous solubility at least 30 µg/mL? input: "O=C(O)Cc1nc2ccccc2[nH]1"
Reply: class 0

Query: // inclusive: aqueous solubility at least 30 µg/mL? input: "Cn1cc(C#N)cc1-c1nc(C2CC2)nn1CCc1ccccc1"
Reply: class 1

Query: // inclusive: aqueous solubility at least 30 µg/mL? input: "CC(C)C(=O)N1CCC(Nc2ncnc3ccsc23)CC1"
Reply: class 1

Query: // inclusive: aqueous solubility at least 30 µg/mL? input: "c1cnc(NCCc2cccc3cccnc23)nc1"
Reply: class 1

Query: // inclusive: aqueous solubility at least 30 µg/mL? input: "O=c1c(=O)n(-c2ccc(F)c(F)c2)ccn1Cc1ccccc1Cl"
Reply: class 0

Query: // inclusive: aqueous solubility at least 30 µg/mL? input: "CCCc1cc(N2CCc3c(nc(C4CC4)n3C)C2)n2ncnc2n1"
Reply: class 1

Query: // inclusive: aqueous solubility at least 30 µg/mL? input: "COc1ccccc1C(=O)Nc1ccc2cc[nH]c2c1"
Reply: class 0

Query: // inclusive: aqueous solubility at least 30 µg/mL? input: "O=C(NCCN1C(=O)CSC1=O)c1cc(Cl)c2c(c1)OCO2"
Reply: class 1

Query: // inclusive: aqueous solubility at least 30 µg/mL? input: "O=C1CN(C(=O)c2ccc(F)cc2)CCN1"
Reply: class 1

Query: // inclusive: aqueous solubility at least 30 µg/mL? input: OCC1CCCCN1Cc1ccc(Cl)c(Cl)c1 (configuration not stated)
Reply: class 1

Query: // inclusive: aqueous solubility at least 30 µg/mL? input: "CCCn1c(=O)c2c(nc3n2CCN3c2ccc(C)cc2)n(C)c1=O"
Reply: class 0

Query: // inclusive: aqueous solubility at least 30 µg/mL? input: "Fc1ccc(Nc2nc(N3CCCCC3)c3nccnc3n2)cc1"
Reply: class 0

Query: // inclusive: aqueous solubility at least 30 µg/mL? input: "COc1cccc(CN2Cc3ccccc3OC3(CCOCC3)C2)c1"
Reply: class 0

Query: // inclusive: aqueous solubility at least 30 µg/mL? input: "Cn1cc(CCNC(=O)N2CCc3sccc3C2)cn1"
Reply: class 1

Query: // inclusive: aqueous solubility at least 30 µg/mL? input: "O=C(Nc1nc2ccccc2[nH]1)c1ccccc1"
Reply: class 0

Query: // inclusive: aqueous solubility at least 30 µg/mL? input: "CCN(c1ccccc1)S(=O)(=O)c1ccc(C(F)(F)F)cc1"
Reply: class 0

Query: // inclusive: aqueous solubility at least 30 µg/mL? input: "N#Cc1ccc(CN2CC(n3cccn3)C2)cc1"
Reply: class 1

Query: // inclusive: aqueous solubility at least 30 µg/mL? input: "Cc1cc(N2CCN(C(=O)OC(C)(C)C)[C@H](C)C2)ncn1"
Reply: class 1

Query: // inclusive: aqueous solubility at least 30 µg/mL? input: "CCc1cc2c(=O)[nH]c(-c3ccccn3)nc2s1"
Reply: class 1

Query: // inclusive: aqueous solubility at least 30 µg/mL? input: "Cc1csc(CCNc2ncccc2C#N)n1"
Reply: class 1

Query: // inclusive: aqueous solubility at least 30 µg/mL? input: "Cc1ccc(Cn2nc(C(=O)N[C@@H]3C(C)(C)[C@@H]4CC[C@@]3(C)C4)cc2-c2ccc(Cl)c(C)c2)cc1"
Reply: class 0

Query: // inclusive: aqueous solubility at least 30 µg/mL? input: "O=C(NCc1cnn(-c2ccccc2)c1)C1CCC1"
Reply: class 1

Query: // inclusive: aqueous solubility at least 30 µg/mL? input: "Cc1cc(C(=O)NCCC2=CSC3=NCCCN23)c2cccc(C)c2n1"
Reply: class 1

Query: // inclusive: aqueous solubility at least 30 µg/mL? input: "CS(=O)(=O)Cc1cc(-c2ccccc2)on1"
Reply: class 1

Query: // inclusive: aqueous solubility at least 30 µg/mL? input: "O=C(Cn1c(=O)c2cccn2c2ccccc21)NCCCN1CCCC1"
Reply: class 1

Query: // inclusive: aqueous solubility at least 30 µg/mL? input: "COc1ccc2nc(NCc3cnn(C)c3)ccc2c1"
Reply: class 1
